assay-system: IKZF2 (Homo sapiens, UniProt Q96SW2+Q9UKS7)
Construct: expressed in transfected cells
Sequence (Q9UKS7 1-500 isoform Q9UKS7-2): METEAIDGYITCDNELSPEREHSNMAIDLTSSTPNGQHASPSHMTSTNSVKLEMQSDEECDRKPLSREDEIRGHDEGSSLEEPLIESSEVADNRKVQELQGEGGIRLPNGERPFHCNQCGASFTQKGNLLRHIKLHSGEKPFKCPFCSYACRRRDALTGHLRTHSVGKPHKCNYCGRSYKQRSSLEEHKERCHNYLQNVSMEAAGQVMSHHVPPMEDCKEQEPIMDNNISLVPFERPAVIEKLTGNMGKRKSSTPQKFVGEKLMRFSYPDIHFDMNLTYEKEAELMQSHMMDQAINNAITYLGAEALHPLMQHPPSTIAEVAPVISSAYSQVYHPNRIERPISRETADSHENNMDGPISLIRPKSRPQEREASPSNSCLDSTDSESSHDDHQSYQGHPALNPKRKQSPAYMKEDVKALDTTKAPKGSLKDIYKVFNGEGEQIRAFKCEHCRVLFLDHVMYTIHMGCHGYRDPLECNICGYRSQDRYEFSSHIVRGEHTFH
Sequence (Q96SW2 whole entry): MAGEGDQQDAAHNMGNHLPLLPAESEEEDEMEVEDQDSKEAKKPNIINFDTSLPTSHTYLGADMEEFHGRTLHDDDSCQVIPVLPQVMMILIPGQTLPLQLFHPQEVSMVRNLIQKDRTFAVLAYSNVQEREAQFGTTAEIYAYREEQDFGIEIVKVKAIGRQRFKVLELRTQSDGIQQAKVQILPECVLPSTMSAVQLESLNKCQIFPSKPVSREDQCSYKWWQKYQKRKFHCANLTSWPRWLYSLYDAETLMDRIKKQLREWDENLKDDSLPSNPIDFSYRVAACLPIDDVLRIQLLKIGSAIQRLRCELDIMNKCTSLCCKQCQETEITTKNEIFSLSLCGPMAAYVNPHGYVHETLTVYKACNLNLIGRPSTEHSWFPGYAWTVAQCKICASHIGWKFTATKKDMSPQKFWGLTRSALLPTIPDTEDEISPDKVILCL
Sequence (Q16531 whole entry partner): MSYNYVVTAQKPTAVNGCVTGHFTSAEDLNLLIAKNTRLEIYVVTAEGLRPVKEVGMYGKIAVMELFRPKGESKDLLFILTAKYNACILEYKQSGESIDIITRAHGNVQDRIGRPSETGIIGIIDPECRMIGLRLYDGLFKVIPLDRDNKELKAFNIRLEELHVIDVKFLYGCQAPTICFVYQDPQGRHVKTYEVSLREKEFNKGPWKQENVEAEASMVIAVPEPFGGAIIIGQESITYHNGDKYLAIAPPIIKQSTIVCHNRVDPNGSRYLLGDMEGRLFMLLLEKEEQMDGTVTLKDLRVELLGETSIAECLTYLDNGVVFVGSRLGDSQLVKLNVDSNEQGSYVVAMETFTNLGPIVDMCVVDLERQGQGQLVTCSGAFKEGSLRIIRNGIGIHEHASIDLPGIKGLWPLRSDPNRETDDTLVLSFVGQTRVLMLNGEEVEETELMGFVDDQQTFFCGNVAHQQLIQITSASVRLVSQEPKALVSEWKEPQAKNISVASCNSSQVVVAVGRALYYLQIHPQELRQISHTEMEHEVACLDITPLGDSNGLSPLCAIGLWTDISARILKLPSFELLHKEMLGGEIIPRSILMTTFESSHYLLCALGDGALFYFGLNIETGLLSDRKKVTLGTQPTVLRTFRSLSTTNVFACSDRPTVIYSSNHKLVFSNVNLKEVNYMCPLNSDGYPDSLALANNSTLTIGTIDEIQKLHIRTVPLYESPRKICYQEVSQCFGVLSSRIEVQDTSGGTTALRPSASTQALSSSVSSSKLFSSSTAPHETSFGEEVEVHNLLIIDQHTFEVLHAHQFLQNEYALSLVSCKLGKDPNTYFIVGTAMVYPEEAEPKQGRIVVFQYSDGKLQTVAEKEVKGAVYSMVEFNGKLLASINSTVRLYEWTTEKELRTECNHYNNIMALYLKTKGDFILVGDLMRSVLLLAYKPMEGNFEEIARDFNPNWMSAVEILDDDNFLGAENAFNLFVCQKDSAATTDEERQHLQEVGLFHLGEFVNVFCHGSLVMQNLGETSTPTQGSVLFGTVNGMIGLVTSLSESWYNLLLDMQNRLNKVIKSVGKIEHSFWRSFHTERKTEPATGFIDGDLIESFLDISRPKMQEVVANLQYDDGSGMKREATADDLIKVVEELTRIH
experiment-notes: HiBiT protein tagging assay, in vitro IKZF2 degradation (HEK293)
Format: cell-based
condition-summary: IKZF2-HiBiT reporter Flp-In T-REx HEK293 cells, doxycycline-induced, compound overnight (18-24 hr), normalized to DMSO control; read-out: IKZF2 Dmax (maximum degradation at the highest concentration tested)
Experimental: In vitro degradation of IKZF1 and IKZF2 was measured using HiBiT protein tagging and detection technology (Promega). HiBiT technology (Promega) was used to develop the quantitative assays to measure the cellular IKZFs level by tagging an 11 amino acid HiBit peptides VSGWRLFKKIS (SEQ ID NO:1) to the protein of interest. Reporter plasmids were generated by fusing a linker sequence (GSSGGSSG; SEQ ID NO:2) followed by the HiBiT tag at the C terminus of IKZF1 and IKZF2. […]
endpoint-name: Dmax (%)

{"compound": "O=C1CCC(N2Cc3cc(OC4CN(Cc5cccnc5)CCC4NCc4ccccc4)ccc3C2=O)C(=O)N1 (racemic)", "assay-system": "IKZF2 (Homo sapiens, UniProt Q96SW2+Q9UKS7)", "Dmax (%)": 92}
{"compound": "N[C@@H]1CCN(Cc2ccccc2)C[C@H]1Oc1ccc2c(c1)CN(C1CCC(=O)NC1=O)C2=O (relative stereo)", "assay-system": "IKZF2 (Homo sapiens, UniProt Q96SW2+Q9UKS7)", "Dmax (%)": 96}
{"compound": "O=C1CCC(N2Cc3cc(O[C@H]4CN(Cc5cccc(F)c5)CC[C@@H]4NCc4ccccc4)ccc3C2=O)C(=O)N1 (mixture of isomers)", "assay-system": "IKZF2 (Homo sapiens, UniProt Q96SW2+Q9UKS7)", "Dmax (%)": 89}
{"compound": "O=C1CCC(N2Cc3cc(OC4CN(Cc5ccccc5)CCC4NCCc4ccccc4)ccc3C2=O)C(=O)N1 (racemic)", "assay-system": "IKZF2 (Homo sapiens, UniProt Q96SW2+Q9UKS7)", "Dmax (%)": 98}

###

assay-system: IKZF2 (Homo sapiens, UniProt Q96SW2+Q9UKS7)
Construct: expressed in transfected cells
experiment-notes: HiBiT protein tagging assay, in vitro IKZF2 degradation (HEK293)
Assay type: cell-based
condition-summary: IKZF2-HiBiT reporter Flp-In T-REx HEK293 cells, doxycycline-induced, compound overnight (18-24 hr), normalized to DMSO control; read-out: IKZF2 Dmax (maximum degradation at the highest concentration tested)
endpoint-name: Dmax (%)

{"compound": "CN1CC[C@@H](NCc2ccccc2)[C@H](Oc2ccc3c(c2)CN(C2CCC(=O)NC2=O)C3=O)C1 (relative stereo)", "assay-system": "IKZF2 (Homo sapiens, UniProt Q96SW2+Q9UKS7)", "unit-annotation": "%", "Dmax": 53}
{"compound": "C[C@@H](c1ccccc1)N1CC[C@H](NCc2ccccc2)[C@@H](Oc2ccc3c(c2)CN(C2CCC(=O)NC2=O)C3=O)C1 (mixture of isomers)", "assay-system": "IKZF2 (Homo sapiens, UniProt Q96SW2+Q9UKS7)", "unit-annotation": "%", "Dmax": 71}

(a) CCN(CC)[C@H]1CCN(Cc2ccc(F)cc2)C[C@@H]1Oc1ccc2c(c1)CN(C1CCC(=O)NC1=O)C2=O (some centres unmarked)
(b) CC(C)CN1CCC(NCc2ccccc2)C(Oc2ccc3c(c2)CN(C2CCC(=O)NC2=O)C3=O)C1 (racemic)
Could you please tell me which of these two has the higher Dmax: a or b ? Your choice should be expressed through its label.
a
(a: 99%, b: 35%)
